molecular target: Tubulin alpha/beta (Bos taurus); assay: Inhibition of Bos taurus (bovine) brain tubulin polymerization
ENDPOINT NAME: pEC50
Please keep in mind that pEC50 is minus log10 of the molar concentration; only the number is needed.

Here is how some compounds turned out for pEC50.
- COMPOUND SMILES: "COc1ccc(-c2ccc(OC)c(OC)c2OC)c(C#N)c1"
  pEC50: 5.20
- COMPOUND SMILES: "COc1ccc(-c2ccc(OC)c(OC)c2OC)c(C)c1"
  pEC50: 5.20
- COMPOUND SMILES: "COc1ccc(-c2ccccc2C#N)c(OC)c1OC"
  pEC50: 4.30
- COMPOUND SMILES: "COc1ccc(-c2ccc(OC)c(OC)c2OC)c([N+](=O)[O-])c1"
  pEC50: 5.20

Proceeding to the next compound to report its pEC50.
Give the measured pEC50 of COc1ccc(-c2ccc(OC)c(OC)c2OC)cc1 .
5.20

Origin of values: BindingDB's records for doi:10.1016/s0960-894x(01)00246-3
